Below are pKi measurements against Substance-K receptor (Homo sapiens, UniProt P21452) drawn from the literature.
pKi: −log10 of the molar value.

Examples with their reported pKi follow.
Cc1nsc(-c2nnc3n2CCN(C(=O)c2ccc(Cl)cc2)[C@@H]3C)n1 :: < 4.52
Cc1nsc(-c2nnc3n2CCN(C(=O)c2ccc(F)c(Cl)c2)C3)n1 :: < 4.52
Cc1ccc(C(=O)N2CCn3c(-c4nc(C)ns4)nnc3[C@H]2C)cc1 :: < 4.52

Proceeding to the next compound to report its pKi.
Could you tell me which pKi is on file for `CN1CCN(C[C@@H]2CC[C@H](NC(=O)[C@@H](Cc3ccccc3)NC(=O)C3(NC(=O)c4cc5ccccc5s4)CCCC3)C2)CC1` ? 8.90
